read-out: Glutamate-cysteine ligase regulatory (GCLM), GCLM (gene 2730); test: LTEA_HepaRG_GCLM: Life Technologies and Expression Analysis (LTEA) Assay for Glutamate-cysteine ligase regulatory (GCLM) using HepaRG (AID 2283500); conditions: mRNA level, 48 h; actives raise or lower the signal
Activity calls are given as the source filed them. Rule for the calls: active = hit-call score of the fitted dose curve at least 0.9, where 1 is the maximum; inactive = score below 0.9.
Possible outcomes: T = active, F = inactive

• CCCCCCCCCCCCCCCCOS(=O)(=O)O = F
• CCCOc1ccc(S(=O)(=O)N2CCN(CC)CC2)cc1-c1nc2c(CC)n(Cc3ccccn3)nc2c(=O)[nH]1 = F
• CC(C)CCCCCCOC(=O)C1CCCCC1C(=O)OCCCCCCC(C)C (stereo not given) = F
• OC(Cn1cncn1)(Cn1cncn1)c1ccc(F)cc1F = F
• Cc1ccc(S(=O)(=O)NC(=O)NN2CCCCCC2)cc1 = F
• OC[C@H]1O[C@@H]2O[C@H]3[C@H](O)[C@@H](O)[C@@H](O[C@H]4[C@H](O)[C@@H](O)[C@@H](O[C@H]5[C@H](O)[C@@H](O)[C@@H](O[C@H]6[C@H](O)[C@@H](O)[C@@H](O[C@H]7[C@H](O)[C@@H](O)[C@@H](O[C@H]1[C@H](O)[C@H]2O)O[C@@H]7CO)O[C@@H]6CO)O[C@@H]5CO)O[C@@H]4CO)O[C@@H]3CO = F
• O=c1[nH]cnc2c1ncn2[C@H]1CC[C@@H](CO)O1 = F
• CCN(CC)C(=S)SSC(=S)N(CC)CC = F
• CC[C@H](C)C(=O)O[C@H]1C[C@H](O)C=C2C=C[C@H](C)[C@H](CC[C@@H](O)C[C@@H](O)CC(=O)O)[C@H]21 = F
• NC(=O)NN=Cc1ccc([N+](=O)[O-])o1 = T
• O=C(O)c1cccc(C(=O)O)c1 = F
• O=C(O)[C@H](O)[C@@H](O)C(=O)O = F
• O=C(O)c1cccc(C[C@@H]2COc3ccc(OCc4nc5cc(F)ccc5s4)cc3[C@@H]2O)c1 = F
• CCn1nc(C)c2c1C(=O)NCC(c1ccc(O)cc1)=N2 = F
• OC[C@H]1O[C@@](CO)(O[C@H]2O[C@H](CO)[C@@H](O)[C@H](O)[C@H]2O)[C@@H](O)[C@@H]1O = F
• COc1cc2c(c(OC)c1OC)-c1ccc(OC)c(=O)cc1[C@@H](NC(C)=O)CC2 = F
• CCCCOC(=O)c1ccccc1 = F
• CCOC(N)=O = F
• Cc1ncc([C@@H](CCCCCCc2ccc3c(n2)NCCC3)CC(=O)O)cn1 = F
• CCc1cccc(CC)c1N = F

###

read-out: Pyruvate Dehydrogenase Kinase 4 (PDK4), PDK4 (gene 5166); test: LTEA_HepaRG_PDK4: Life Technologies and Expression Analysis (LTEA) Assay for Pyruvate Dehydrogenase Kinase 4 (PDK4) using HepaRG (AID 2283525); conditions: mRNA level, 48 h; actives raise or lower the signal
The source made the active and inactive calls. The calls were made as follows: active = hit-call score of the fitted dose curve at least 0.9, where 1 is the maximum; inactive = score below 0.9.
Possible outcomes: Y = active, N = inactive

• CCCCCCCCCCCCCCO = N
• OCCNCCO = Y
• CCCCCCCCN(C)C = N
• COS(C)(=O)=O = N
• OCc1ccccc1 = N
• CCCc1ccccc1 = N
• O=C(O)[C@H](O)[C@@H](O)C(=O)O = N
• CCCCCCOC(=O)CC(CC(=O)OCCCCCC)(OC(=O)CCC)C(=O)OCCCCCC = N
• Cc1nc(-c2ccccn2)ncc1C(=O)Nn1cc(C)c2cc(F)ccc21 = N
• C=CN1CCCC1=O = N
• CCCCCCCCCCCCCCCCOS(=O)(=O)O = Y

###

assay: ACEA_ER_AUC_viability: ACEA Biosciences xCELLigence Real-Time Cell Analysis on Estrogen Receptor Agonism for Viability (AID 2283782);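 note: continuous compound exposure with impedance area under curve over 80 h; hit means loss of impedance signal meaning reduced cell growth or viability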
Records with an inconclusive call do not appear. Calls of active or inactive are those of the source. How the source made its calls: active means hit-call score of the fitted dose curve at least 0.9, where 1 is the maximum; inconclusive means response in the unintended direction; inactive means score below 0.9.
result_type: outcome

- OC[C@H]1O[C@@H]2O[C@H]3[C@H](O)[C@@H](O)[C@@H](O[C@H]4[C@H](O)[C@@H](O)[C@@H](O[C@H]5[C@H](O)[C@@H](O)[C@@H](O[C@H]6[C@H](O)[C@@H](O)[C@@H](O[C@H]7[C@H](O)[C@@H](O)[C@@H](O[C@H]1[C@H](O)[C@H]2O)O[C@@H]7CO)O[C@@H]6CO)O[C@@H]5CO)O[C@@H]4CO)O[C@@H]3CO: inactive
- OC[C@H]1O[C@@](CO)(O[C@H]2O[C@H](CO)[C@@H](O)[C@H](O)[C@H]2O)[C@@H](O)[C@@H]1O: inactive

###

experiment: Tanguay_ZF_120hpf_PIG_legacy: (Legacy) Oregon State University Tanguay Lab 120 Hour Post-fertilization zebrafish Assay for Pigmentation Malformation (AID 2283650);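 note: dechorionated Tropical 5D zebrafish embryos exposed singly from 6 to 120 hpf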
Inconclusive results are not listed. Activity calls are given as the source filed them. Rule for the calls: active = hit-call score of the fitted dose curve at least 0.9, where 1 is the maximum; inconclusive = response in the unintended direction; inactive = score below 0.9.
Possible outcomes: Yes for active, No for inactive

* COCc1nnc(-c2ccc[n+]([O-])c2)n1-c1c(Cl)c(Cl)cc2[nH]c(=O)c(=O)[nH]c12 | No
* OC(CCl)CCl | No
* CCOc1ccc2[nH]cc(C(=O)NCc3ccccc3)c(=O)c2n1 | No
* c1ccc2c(c1)-c1cccc3c1c-2cc1ccccc13 | No
* Cn1c(=O)c2[nH]cnc2n(C)c1=O | No
* COc1cc2c(c(OC)c1OC)-c1ccc(OC)c(=O)cc1[C@@H](NC(C)=O)CC2 | Yes

###

assay: APR_HepG2_p53Act_24hr: Apredica 24-hour HepG2 Assay for p53 Activation (AID 2282913); details: high-content imaging, actives raise or lower the signal;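 note: p53 protein immunofluorescence averaged per cell in HepG2 with Hoechst nuclei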
Calls of active or inactive are those of the source. Rule for the calls: active = hit-call score of the fitted dose curve at least 0.9, where 1 is the maximum; inactive = score below 0.9.
Possible outcomes: True for active, False for inactive

* OCCOCCOCCO | False
* c1ccc(C(O[C@@H]2CCCN(CCc3ccc4c(c3)OCO4)C2)c2ccccc2)cc1 | True
* CC1(C)C(=O)N(Cl)C(=O)N1Cl | False
* Cn1cc[nH]c1=S | False
* CCCCCCCC1CCC(=O)O1 (stereo unspecified) | False
* NC(=O)NN=Cc1ccc([N+](=O)[O-])o1 | False
* c1ccc2ncccc2c1 | False
* OC(Cn1cncn1)(Cn1cncn1)c1ccc(F)cc1F | False
* OC(CCl)CCl | False
* C[C@]12C=CC(=O)C=C1CC[C@H]1[C@@H]3C[C@@H](O)[C@](O)(C(=O)CO)[C@@]3(C)C[C@H](O)[C@@]12F | False
* NNC(=O)c1ccncc1 | False
* Cn1c(=O)c2[nH]cnc2n(C)c1=O | False
* CCCCN1C(=O)[C@@H]([C@H](O)C2CCCCC2)NC(=O)C12CCN(Cc1ccc(Oc3ccc(C(=O)O)cc3)cc1)CC2 | False
* c1ccc2cc3ccccc3cc2c1 | False
* O=C1CN(N=Cc2ccc([N+](=O)[O-])o2)C(=O)N1 | True
* CCc1cccc(CC)c1N | False

###

biological target: AR (gene 367); assay: ACEA_AR_antagonist_80hr: ACEA Biosciences xCELLigence Real-Time Cell Analysis on Androgen Receptor Antagonism for Proliferation (AID 2283787);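 note: 22Rv1 human prostate cancer cells with growth followed by electrical impedance; hits lower the impedance growth signal relative to DMSO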
Records with an inconclusive call do not appear. Active and inactive are the calls of the source. How the source made its calls: active means hit-call score of the fitted dose curve at least 0.9, where 1 is the maximum; inconclusive means response in the unintended direction; inactive means score below 0.9.
Possible outcomes: t for active, f for inactive

• COc1cc(C(C)C)c2c(c1)S(=O)(=O)N(COc1cc(=O)n3cccc(OCCN4CCCCC4)c3n1)C2=O = t
• CCCCCCCCCCCCCCCCOS(=O)(=O)O = t
• CCc1cccc(CC)c1N = t
• OCc1ccccc1 = f
• CCCCC(CC)C(=O)OCCOCCOCCOC(=O)C(CC)CCCC (stereo unspecified) = t
• C=CCc1cc(S(=O)(=O)c2ccc(O)c(CC=C)c2)ccc1O = t

###

assay: CCTE_Shafer_MEA_acute_cross_correlation_area: CCTE's Neural Acute Assay for Area of Cross Correlation, Shafer Lab (AID 2284024);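 note: area under pooled inter-electrode spike cross-correlation near zero lag as percent change from own baseline; curves fitted for loss of cross-correlation area so actives lower synchrony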
Calls of active or inactive are those of the source. How the source made its calls: active means hit-call score of the fitted dose curve at least 0.9, where 1 is the maximum; inactive means score below 0.9.
Possible outcomes: active, inactive

* CC[C@H](C)C(=O)O[C@H]1C[C@H](O)C=C2C=C[C@H](C)[C@H](CC[C@@H](O)C[C@@H](O)CC(=O)O)[C@H]21 | inactive
* c1ccc2cc3ccccc3cc2c1 | active
* COc1cc(C(C)C)c2c(c1)S(=O)(=O)N(COc1cc(=O)n3cccc(OCCN4CCCCC4)c3n1)C2=O | inactive
* CCc1ccc(O)c(C(C)(C)C)c1 | inactive
* COCc1nnc(-c2ccc[n+]([O-])c2)n1-c1c(Cl)c(Cl)cc2[nH]c(=O)c(=O)[nH]c12 | inactive
* OC(CCl)CCl | inactive
* c1ccc(C(O[C@@H]2CCCN(CCc3ccc4c(c3)OCO4)C2)c2ccccc2)cc1 | inactive
* CCCc1ccccc1 | inactive
* Cc1ncc([C@@H](CCCCCCc2ccc3c(n2)NCCC3)CC(=O)O)cn1 | inactive
* C=CCc1cc(S(=O)(=O)c2ccc(O)c(CC=C)c2)ccc1O | inactive
* O=S(=O)(O)c1ccc(N=Nc2c(O)ccc3cc(S(=O)(=O)O)ccc23)cc1 | inactive
* CCCCCCCC/C=C\CCCCCCCC(=O)OC[C@@H](O)[C@H]1OC[C@H](O)[C@H]1O | inactive
